Target: T1, Rad6, purified (yeast, UniProt P06104 1-172)
T1 sequence (looked up): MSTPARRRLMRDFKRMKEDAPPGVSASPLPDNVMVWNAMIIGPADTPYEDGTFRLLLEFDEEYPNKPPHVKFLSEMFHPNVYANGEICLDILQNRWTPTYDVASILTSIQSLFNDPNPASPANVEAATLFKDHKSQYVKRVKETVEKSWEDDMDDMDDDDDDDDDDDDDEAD
Assay: BLI
No end group written: not given here. *: point of attachment. Biotin = O=C1N[C@H]2[C@H](CS[C@H]2CCCCC(=O)*)N1; Ahx = NCCCCCC(=O)O
measure: Kd (nM)

{"binder": "NKRLKKQGTLESFFKRKAK (not fully specified) [PIP-like motif of Pol32 (peptide)]", "reported_measurement": 600}
{"binder": "{Biotin-Ahx}-QKKQVTSSKNILSFFTRKK [N-terminally biotinylated peptide containing PIP1 of pol η]", "reported_measurement": 2300}
